Value source: patent US20140120095A1

Tested target: T1, recombinant human VEGF121 (human, UniProt P15692-9 27-147)
T1 construct: also called rhVEGF121
T1 sequence (looked up): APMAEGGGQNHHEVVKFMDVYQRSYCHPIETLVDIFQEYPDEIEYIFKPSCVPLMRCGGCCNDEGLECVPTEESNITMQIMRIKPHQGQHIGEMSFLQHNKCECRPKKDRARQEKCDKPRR
Test name: binding ELISA, coated rhVEGF121
Method: Binding to recombinant human VEGF121 is assessed via a solid phase binding ELISA. […] Wells are blocked with a casein solution (1% in PBS).
Readout label: EC50 (nM)

[[record]]
binder = "VEGFBII022 (VHH, not shown: small tags and cut ends, Bivalent (heterodimeric) anti-VEGF VHH; also called VEGFBII23B04-9GS-5B05) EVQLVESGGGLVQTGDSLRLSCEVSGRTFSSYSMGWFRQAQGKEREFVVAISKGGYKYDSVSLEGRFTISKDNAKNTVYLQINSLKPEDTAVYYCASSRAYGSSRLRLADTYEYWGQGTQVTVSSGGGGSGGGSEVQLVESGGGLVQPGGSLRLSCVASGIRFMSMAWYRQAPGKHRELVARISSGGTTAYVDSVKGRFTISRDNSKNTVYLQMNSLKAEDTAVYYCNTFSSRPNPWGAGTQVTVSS"
readout_label = "EC50"
obs_value = 0.54

